test: Caffeine solubility with co-solutes during refrigerated storage (Example 61)
Format: physicochemical
Set-up: key: (PPT)—precipitate observed; (—)—clear solution observed
conditionSet: caffeine 15 mg/mL, 50 mM co-solute, 25 mM histidine pH 6, stored 2 to 5° C., Day 27
observationType: Day 27 (visual observation for precipitate)

Some solved entries appear below for comparison.
>>> endpointresult("N[C@@H](Cc1ccccc1)C(=O)O [Phenylalanine]")
"—"
>>> endpointresult("O=C([O-])c1ccccc1.[Na+] [Sodium benzoate]")
"—"
>>> endpointresult("OCc1ccccc1 [Benzyl alcohol]")
"PPT"
>>> endpointresult("CN1CCCC1=O [N-Methyl-2-pyrrolidone]")
"PPT"

# next compound below
INPUT: Given the entry NC(=O)c1cccnc1 [Nicotinamide] , report its measured Day 27 (visual observation for precipitate).
OUTPUT: —

* * *

System: infliximab
test: Thermal stability at 50° C. with caffeine and excipients, SE-HPLC (Example 63)
Assay type: physicochemical
conditionSet: excipient 0.5 M, caffeine 50 mM, infliximab 10 mg/mL, 5 mM phosphate pH 7.5, 50° C., 180 min
Procedure: Therapeutic proteins stress leads to aggregation of the protein and a decrease in the active native species. […] The aliquots were withdrawn at 0 min, 90 min and 180 min. […] Diode array detector.
observationType: % change compared to control (%)

Some solved entries appear below for comparison.
>>> endpointresult("O[C@H]1[C@H](O)[C@@H](O)[C@H](O)[C@@H](O)[C@H]1O [Inositol]")
58.9
>>> endpointresult("O=C1O[C@H]([C@@H](O)CO)C(O)=C1O[C@H]1O[C@H](CO)[C@@H](O)[C@H](O)[C@H]1O [Ascorbyl glucoside]")
45.8

A = O=P(O)(O)C(O)(Cc1cccnc1)P(=O)(O)O [Risedronate]
B = OC[C@H]1O[C@H](O[C@H]2[C@H](O)[C@@H](O)C(O)O[C@@H]2CO)[C@H](O)[C@@H](O)[C@@H]1O (mixture of isomers) [Maltose]
INPUT: Pick the one with the larger % change compared to control: A vs B Please reply using the label of the selected record.
OUTPUT: A

* * *

Tested on: infliximab
test: Thermal stability at 50° C. with caffeine and excipients, SE-HPLC (Example 63)
Format: physicochemical
conditionSet: excipient 0.5 M, caffeine 50 mM, infliximab 10 mg/mL, 5 mM phosphate pH 7.5, 50° C., 180 min
observationType: % change compared to control (%)

P = O=C(O)[C@H](O)[C@@H](O)[C@H](O[C@@H]1O[C@H](CO)[C@H](O)[C@H](O)[C@H]1O)[C@H](O)CO
Q = CO[C@H]1[C@H](O)[C@@H](O)[C@@H](O)[C@H](O)[C@@H]1O
INPUT: Hello, I am sorting some records. Could you say if P or Q has the smaller % change compared to control value? Please reply using the label of the selected record.
OUTPUT: Q
(Q: 13.1%, P: 20.8%)

* * *

Tested on: ustekinumab-FITC
test: Thermal stability of model ADC at 65° C. by SE-HPLC (Example 56)
conditionSet: excipient 5 mg/mL, ustekinumab-FITC 1 mg/mL, 20 mM Histidine pH 6.0, 65° C.
observationType: % increase in monomer content vs. control (%)

>>> endpointresult("O=C(CO)[C@@H](O[C@H]1O[C@H](CO)[C@@H](O)[C@H](O)[C@H]1O)[C@H](O)[C@H](O)CO")
48.06
>>> endpointresult("O=C1O[C@@H]([C@H](O)CO)[C@@H](O)[C@H]1O")
79.95
>>> endpointresult("O=C(CO)[C@@H](O)[C@H](O)[C@H](O)[C@H](O)CO")
37.68

P = O=C[C@@H](O)[C@H](O)[C@H](O)[C@H](O)CO
Q = CC(=O)N[C@@H]1C(O)O[C@H](CO)[C@@H](O)[C@@H]1O (some centres unmarked)
INPUT: Pick the one with the larger % increase in monomer content vs. control: P vs Q Please reply using the label of the selected record.
OUTPUT: P
(P: 63.41%, Q: 23.49%)

* * *

Test system: bovine gamma globulin (BGG)
test: Normalized viscosity of BGG with caffeine and a secondary excipient (Example 40)
Type: physicochemical
conditionSet: Excipient A caffeine 15 mg/mL + Excipient B 20 mg/mL; BGG about 280 mg/mL, 20 mM histidine pH 6, 25° C.
observationType: Normalized Viscosity

>>> endpointresult("N=C(N)NCCC[C@H](N)C(=O)O [Arginine, reference compound]")
0.63
>>> endpointresult("CC(C)C[C@H](N)C(=O)O [Leucine]")
0.69
>>> endpointresult("N[C@@H](Cc1ccccc1)C(=O)O [Phenylalanine]")
0.60
>>> endpointresult("N[C@@H](CC(=O)O)C(=O)O [Aspartic acid]")
0.73

* * *

Tested on: omalizumab
test: DLS viscosity of concentrated omalizumab (Example 54)
Type: physicochemical
conditionSet: concentrated omalizumab 9 parts : 1 part excipient stock (1 M or solubility limit), 20 mM HisHCl pH 6
observationType: DLS Viscosity, Replicate 1 (cP)

>>> endpointresult("Cn1ccnc1")
53.4

A = CCCCn1ccnc1
B = Cc1ncc[nH]1
INPUT: Hello, I am sorting some records. Could you say if A or B has the smaller DLS Viscosity, Replicate 1 value? Please reply using the label of the selected record.
OUTPUT: A
(A: 40.5 cP, B: 65.6 cP)

1 = CCCCc1ncc[nH]1
2 = CN[C@@H]1[C@H](O)[C@H](NC)[C@H]2O[C@@]3(O)C(=O)C[C@@H](C)O[C@H]3O[C@@H]2[C@H]1O
INPUT: Hello, I am sorting some records. Could you say if 1 or 2 has the smaller DLS Viscosity, Replicate 1 value? Please reply using the label of the selected record.
OUTPUT: 1
(1: 26.0 cP, 2: 60.1 cP)

* * *

Tested on: omalizumab
test: Diffusion interaction parameter kD of omalizumab by DLS (Example 62)
conditionSet: Table 62B series; omalizumab 10 to 0.6 mg/mL, 0.1M excipient, His HCl pH 6.0, 25° C.
Structures can show the parent of a compound that is named as a salt.
observationType: kD (mL/g)

Some solved entries appear below for comparison.
>>> endpointresult("NCCCC[C@H](N)C(=O)O")
-10.1
>>> endpointresult("O=C(O)[C@]1(O)C[C@@H](O)[C@@H](O)[C@H](O)C1")
-24.2
>>> endpointresult("NCc1cccc(CN)c1")
-13.1
>>> endpointresult("NCCO [ethanolamine HCl]")
-22.4
>>> endpointresult("Nc1ccncc1")
-22.5

1 = Nc1nc(=O)c2c([nH]1)NCC(CNc1ccc(C(=O)N[C@@H](CCC(=O)[O-])C(=O)[O-])cc1)N2C=O.[Ca+2] (some centres unmarked) [folinic acid calcium salt]
2 = NCCCCNCCCN
INPUT: Pick the one with the larger kD: 1 vs 2 Please reply using the label of the selected record.
OUTPUT: 2
(2: -13.7 mL/g, 1: -34.9 mL/g)

* * *

System: omalizumab
test: DLS viscosity of concentrated omalizumab (Example 54)
Type: physicochemical
conditionSet: concentrated omalizumab 9 parts : 1 part excipient stock (1 M or solubility limit), 20 mM HisHCl pH 6
Counter-ions that a name gives are not always drawn. Residues, ends and D or L forms follow the SMILES beside them.
Quick list: DLS Viscosity, Replicate 1 per entry.
Please respond with the number in cP and leave the unit unwritten.

>>> endpointresult("CC[N+](CC)(CC)CC.Cl [Tetraethylammonium HCl]")
73.7
>>> endpointresult("CN(C)CCc1ccc(O)cc1 [Hordenine HCl]")
36.9

# next compound below
INPUT: Given the entry NCC(=O)NCC(=O)NCC(=O)NCC(=O)O [Tetraglycine] (H-GGGG-OH) , report its measured DLS Viscosity, Replicate 1.
OUTPUT: 89.7
